B1: Hairpin Ribozyme (parent)
chain: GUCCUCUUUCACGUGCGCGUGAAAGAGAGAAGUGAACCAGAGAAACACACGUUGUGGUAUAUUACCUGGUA

Variants of: B1
Experiment: self-cleavage, relative activity (ratio to wild type); higher = more cleavage; co-transcriptional
Property Name: self-cleavage
Respond with the number and no other words.

Solved cases (10 shown):
GUCCUCUUUCACCUGCGCGUGAAAGAGAGAAGUGAACCAGAGAAUCACACGUUGUGGUAUAUUACCUGGUA ... 0.0506
GUCCUGAUUCACGUGCGCGUGAAAGAGAGAAGUGAACCAGAGAAACACACGUUGUGGUAUAUUACCUGGUA ... 0.337
GUCCUCUUUCACGUGCGCGUGAAAGAGAGAAGUGAACCAGAGAAACACACUUUGGGGUAUAUUACCUGGUA ... 0.222
GUCCUCUUGCACGUGCGCGUGAAAGAGAGAAGUGAACCAGAGAAACACACGGUGUGGUAUAUUACCUGGUA ... 0.492
GUCCUCUUUCACGUCCGCGUGAAAGAGAGAAGUGAACCAGAGAAACACACGUUGUGGUUUAUUACCUGGUA ... 0.224
GUCCUCUUUCACGUGCGCGUGAAAAAGAGAAGUGAACCAGAGAAACACACGUUGUAGUAUAUUACCUGGUA ... 0.105
GUCCUCUUUCACGUGCGCAUGAAAGAGAGAAGUGAACCAGAGAAACAAACGUUGUGGUAUAUUACCUGGUA ... 0.136
GUCCUCUUUCACGUGCGCGUGGAAGAGAGAAGGGAACCAGAGAAACACACGUUGUGGUAUAUUACCUGGUA ... 0.111
GUCCUCUUUCACGUGCGCGUGAAAGAGACAAGUGAACCAGAGAAACACACGUUGUGGUAUAUUAACUGGUA ... 0.204
GUCCUCUUUCACGUGCACGUGAAAGAGAGAAGUGAACCAGAGAAACACACGUUGUUGUAUAUUACCUGGUA ... 0.137

Could you now look at the following variant, please?
input: Tell me the measured self-cleavage of UUCCUCUUUCACGUGCCCGUGAAAGAGAGAAGUGAACCAGAGAAACACACGUUGUGGUAUAUUACCUGGUA , please.
output: 0.112
